Documented Observed MHC Stability across a set of binders
# measured.on: T1, HLA class I molecule B07.02
# T1 construct: Purified MHC class I complex; also called HLA-B07:02
# procedure.details: pMHC-I dissociation assay with 125I-labeled beta2m light chain at 37 C, scintillation counts; time in hours for half of the complexes to dissociate
Kindly write the number and append the unit.

Below: 4 binders and their reported Observed MHC Stability.
Quick check: Observed MHC Stability of KPKRDGYMFL (also called GATA3 . . ; CSNH) ? 3.3 h

Sample KPKRDGYMF (also called GATA3 . . ; CSNH) — what was its Observed MHC Stability? 8.6 h

Any idea what Observed MHC Stability was measured for MFATLQRSSL (also called GATA3 . . ; CSNH) ? 0 h

Observed MHC Stability for GPPARVPAV (also called GATA3 . . ; CSNH) ? 1.6 h

***
Field request: Observed MHC Stability | item: FATLQRSSL (also called GATA3 . . ; CSNH) 0.7 h
